# target.or.system: Proteasome Macropain subunit MB1 (Homo sapiens)
# Sequence (P28074 whole entry): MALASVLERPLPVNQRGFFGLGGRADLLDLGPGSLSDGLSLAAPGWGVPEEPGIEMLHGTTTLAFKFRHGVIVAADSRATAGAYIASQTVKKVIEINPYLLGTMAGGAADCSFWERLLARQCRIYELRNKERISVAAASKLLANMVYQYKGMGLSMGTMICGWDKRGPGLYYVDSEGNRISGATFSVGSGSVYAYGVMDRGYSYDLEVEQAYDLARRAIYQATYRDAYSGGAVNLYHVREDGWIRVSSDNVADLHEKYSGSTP
# assay.name: Inhibition of chymotrypsin-like activity of 26S proteasome beta 5 subunit in human U266 cells using Suc-LLVY-aminoluciferin as substrate after 1 hr by Proteosome-Glo luminescence assay
metric.name: IC50 (nM)

CC(C)C[C@H](NC(=O)c1cc(Cl)ccc1OCc1ccccc1)C(=O)N[C@@H](Cc1ccccc1)C(=O)NC(C=O)Cc1ccccc1 (some centres undefined) = 168
CC(C)C[C@H](NC(=O)c1cc(Cl)ccc1OCc1ccccc1)C(=O)N[C@@H](CC(C)C)C(=O)NC(C=O)Cc1ccccc1 (some centres undefined) = 197
CC(C)C[C@@H](C=O)NC(=O)[C@H](Cc1ccccc1)NC(=O)[C@H](CC(C)C)NC(=O)c1cc(Cl)ccc1O = 237
